Test system: Phakopsora pachyrhizi (F129L)
Test: Protective control of soybean rust on soybeans (PHAKPA P6)
Type: in vivo
Settings: protective P6, 4 ppm, soybean rust F129L
reported endpoint: % PHAKPA (F129L) Disease level P6 at 4 ppm (%)

{"columns": ["chemical structure", "result unit", "value reported"],
 "data": [
  ["CNC(=O)/C(=N/OC)c1cccc(C)c1CO/N=C(\\C)c1cccc(-c2ccccc2)c1", "%", 1],
  ["CO/N=C(/C(=O)OC)c1cccc(C)c1CO/N=C(\\C)c1ccccc1", "%", 77],
  ["CNC(=O)/C(=N/OC)c1cccc(C)c1CO/N=C(\\C)c1c(F)cccc1OC(F)F", "%", 100],
  ["CNC(=O)/C(=N/OC)c1cccc(C)c1CO/N=C(\\C)c1ccc(OC)cc1", "%", 27],
  ["CCc1cc(/C(C)=N/OCc2c(C)cccc2/C(=N\\OC)C(=O)OC)cc(C(F)(F)F)c1", "%", 77],
  ["CO/N=C(/C(=O)OC)c1cccc(C)c1CO/N=C(\\C)c1ccc(-c2ccccc2)cc1", "%", 46],
  ["CNC(=O)/C(=N/OC)c1cccc(C)c1CO/N=C(\\C)c1ccc(C)c(C(F)(F)F)c1", "%", 73],
  ["C#Cc1cccc(/C(C)=N/OCc2c(C)cccc2/C(=N\\OC)C(=O)OC)c1", "%", 100],
  ["CO/C=C(/C(=O)OC)c1cccc(C)c1CO/N=C(\\C)c1cc(F)c(F)cc1CC(F)(F)F", "%", 70],
  ["CO/N=C(/C(=O)OC)c1cccc(C)c1CO/N=C(\\C)c1cc(F)ccc1C(F)(F)F", "%", 90],
  ["C#Cc1cccc(/C(C)=N/OCc2c(C)cccc2/C(=N\\OC)C(=O)NC)c1F", "%", 32],
  ["CNC(=O)/C(=N/OC)c1cccc(C)c1CO/N=C(\\C)c1ccc(OC(F)(F)F)cc1", "%", 3],
  ["CO/N=C(/C(=O)OC)c1cccc(C)c1CO/N=C(\\C)c1cccc(C2CC2)c1", "%", 87],
  ["CNC(=O)/C(=N/OC)c1cccc(C)c1CO/N=C(\\C)c1cc(F)c(F)cc1C(F)(F)F", "%", 35],
  ["CNC(=O)/C(=N/OC)c1cccc(C)c1CO/N=C(\\C)c1ccc(-c2ccccc2)cc1C(F)(F)F", "%", 33],
  ["CO/N=C(/C(=O)OC)c1cccc(C)c1CO/N=C(\\C)c1cccc(-c2ccccc2)c1", "%", 1]
]}

====

Quick reference: % PHAKPA (F129L) Disease level P2 at 16 ppm of the listed items.
Tested on: Phakopsora pachyrhizi (F129L)
Test: Protective control of soybean rust on soybeans (PHAKPA P2)
Assay type: in vivo
Details: protective P2, 16 ppm, soybean rust F129L
reported endpoint: % PHAKPA (F129L) Disease level P2 at 16 ppm (%)

{"columns": ["compound", "value reported"],
 "data": [
  ["CO/N=C(/C(=O)OC)c1cccc(C)c1CO/N=C(\\C)c1cc(C(F)(F)F)ccc1Cl [compound 200]", 73],
  ["CO/N=C(/C(=O)OC)c1cccc(C)c1CO/N=C(\\C)c1cccc(C(C)C)c1 [compound 95]", 0],
  ["CO/C=C(/C(=O)OC)c1cccc(C)c1CO/N=C(\\C)c1ccc(Cl)c(Cl)c1C(F)(F)F [compound 430]", 6],
  ["CNC(=O)/C(=N/OC)c1cccc(C)c1CO/N=C(\\C)c1c(F)ccc(C(F)(F)F)c1F [compound 162]", 0],
  ["CNC(=O)/C(=N/OC)c1cccc(C)c1CO/N=C(\\C)c1ccc(Cl)c(F)c1OC(F)(F)F [compound 449]", 10],
  ["CO/N=C(/C(=O)OC)c1cccc(Br)c1CO/N=C(\\C)c1ccccc1 [compound 395]", 4],
  ["CNC(=O)/C(=N/OC)c1cccc(C)c1CO/N=C(\\C)c1cccc(C(F)F)c1 [Ex. 12]", 1],
  ["CO/N=C(/C(=O)OC)c1cccc(C)c1CO/N=C(\\C)c1cccc(Br)c1 [Ex. 56]", 24],
  ["CNC(=O)/C(=N/OC)c1cccc(C)c1CO/N=C(\\C)c1ccc(-c2ccccc2)cc1OC(F)(F)F [compound 435]", 57],
  ["CO/N=C(/C(=O)OC)c1cccc(C)c1CO/N=C(\\C)c1cc(F)ccc1F [compound 118]", 0],
  ["CO/N=C(/C(=O)OC)c1cccc(C)c1CO/N=C(\\C)c1ccc(OC)cc1 [Ex. 216]", 13],
  ["CNC(=O)/C(=N/OC)c1cccc(C)c1CO/N=C(\\C)c1cc(F)ccc1Br [compound 248]", 2],
  ["CO/C=C(/C(=O)OC)c1cccc(C)c1CO/N=C(\\C)c1c(Cl)cc(Cl)cc1OC(F)(F)F [compound 436]", 15],
  ["CNC(=O)/C(=N/OC)c1cccc(C)c1CO/N=C(\\C)c1c(F)cccc1C(F)(F)F [compound 345]", 1],
  ["C#Cc1ccccc1/C(C)=N/OCc1c(C)cccc1/C(=N\\OC)C(=O)OC [compound 122]", 73],
  ["CNC(=O)/C(=N/OC)c1cccc(C)c1CO/N=C(\\C)c1cccc(C)c1 [Ex. 77]", 4],
  ["CO/N=C(/c1cccc(/C(C)=N/OCc2c(C)cccc2/C(=N\\OC)C(=O)OC)c1)C(F)(F)F [compound 70]", 0],
  ["CNC(=O)/C(=N/OC)c1cccc(C)c1CO/N=C(\\C)c1ccc(OC(F)(F)F)cc1Cl [compound 271]", 1],
  ["CO/N=C(/C(=O)OC)c1cccc(C)c1CO/N=C(\\C)c1cccc(C(F)(F)F)c1 [Ex. 9]", 23],
  ["CNC(=O)/C(=N/OC)c1cccc(C)c1CO/N=C(\\C)c1ccccc1C(F)(F)F [compound 38]", 4],
  ["CO/N=C(/C(=O)OC)c1cccc(C)c1CO/N=C(\\C)c1cc(C#N)cc(C(F)(F)F)c1 [compound 48]", 80],
  ["CNC(=O)/C(=N/OC)c1cccc(C)c1CO/N=C(\\C)c1cc(Cl)cc(C(F)(F)F)c1 [compound 228]", 0],
  ["CO/N=C(/C(=O)OC)c1cccc(C(F)F)c1CO/N=C(\\C)c1cccc(C(F)(F)F)c1 [Ex. 24]", 60],
  ["CO/N=C(/C(=O)OC)c1cccc(C)c1CO/N=C(\\C)c1ccccc1C [compound 115]", 63],
  ["CNC(=O)/C(=N/OC)c1cccc(C)c1CO/N=C(\\C)c1ccccc1COC [compound 277]", 60],
  ["CNC(=O)/C(=N/OC)c1cccc(C)c1CO/N=C(\\C)c1cccc(C#CC(F)(F)F)c1 [compound 57]", 8],
  ["CNC(=O)/C(=N/OC)c1cccc(C)c1CO/N=C(\\C)c1ccc(OC)cc1OC(F)(F)F [compound 337]", 0],
  ["CC/C(=N\\OCc1c(C)cccc1/C(=N\\OC)C(=O)NC)c1ccccc1C(F)(F)F [compound 189]", 28],
  ["CO/N=C(/C(=O)OC)c1cccc(C)c1CO/N=C(\\C)c1ccc(-c2ccccc2)cc1 [compound 111]", 8],
  ["CNC(=O)/C(=N/OC)c1cccc(C2CC2)c1CO/N=C(\\C)c1cccc(C(F)(F)F)c1 [Ex. 11]", 1],
  ["CNC(=O)/C(=N/OC)c1cccc(C)c1CO/N=C(\\C)c1cccc(C2CC2)c1 [compound 299]", 13],
  ["CNC(=O)/C(=N/OC)c1cccc(C)c1CO/N=C(\\C)c1c(F)cccc1OC(F)F [compound 202]", 22],
  ["COC=C(C(=O)OC)c1cccc(C)c1CON=C(C)c1ccc(OC(F)(F)F)cc1Cl [compound 463]", 0]
]}
